Data provenance is patent US7135466B2.

molecular target: c-kit (Homo sapiens, UniProt P10721); construct: MO7e (human megakaryocytic leukemia cell line) which had been arrested for 20 hr; endogenous in cells; host or cells: MO7e human megakaryocytic leukemia cell line; assay: Inhibitory activity against c-kit autophosphorylation (MO7e cells, h-SCF); type: cell-based; details: MO7e cells, 50 ng/ml h-SCF; read-out: c-kit IC50
Sequence (P10721 26-976): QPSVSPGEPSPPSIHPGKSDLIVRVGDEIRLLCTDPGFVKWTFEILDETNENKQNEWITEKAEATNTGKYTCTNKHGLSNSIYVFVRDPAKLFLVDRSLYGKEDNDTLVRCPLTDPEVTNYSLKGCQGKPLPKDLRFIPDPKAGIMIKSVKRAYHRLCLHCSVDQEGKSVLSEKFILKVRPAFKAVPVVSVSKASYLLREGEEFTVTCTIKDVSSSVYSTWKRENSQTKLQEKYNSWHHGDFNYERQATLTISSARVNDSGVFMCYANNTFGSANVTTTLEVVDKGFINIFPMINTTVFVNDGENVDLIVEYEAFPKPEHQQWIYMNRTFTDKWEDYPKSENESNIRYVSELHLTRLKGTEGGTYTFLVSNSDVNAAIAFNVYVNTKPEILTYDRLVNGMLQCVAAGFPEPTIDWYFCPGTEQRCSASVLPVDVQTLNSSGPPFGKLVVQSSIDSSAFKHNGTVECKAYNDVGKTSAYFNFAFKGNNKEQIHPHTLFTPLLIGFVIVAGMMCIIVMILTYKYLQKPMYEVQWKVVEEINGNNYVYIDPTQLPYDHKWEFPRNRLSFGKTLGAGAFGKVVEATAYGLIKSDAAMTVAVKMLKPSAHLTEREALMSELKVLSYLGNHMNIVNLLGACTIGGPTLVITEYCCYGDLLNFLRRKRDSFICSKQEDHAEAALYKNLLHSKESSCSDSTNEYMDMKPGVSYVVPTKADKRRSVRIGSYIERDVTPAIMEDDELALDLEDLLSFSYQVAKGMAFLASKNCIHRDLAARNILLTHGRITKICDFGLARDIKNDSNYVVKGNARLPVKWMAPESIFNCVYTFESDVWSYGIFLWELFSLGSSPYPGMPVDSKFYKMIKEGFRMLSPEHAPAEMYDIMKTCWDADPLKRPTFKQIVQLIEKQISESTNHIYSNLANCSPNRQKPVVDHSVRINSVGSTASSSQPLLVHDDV
MEASUREMENT_KIND: IC50 (µM)

Worked examples, 5 compounds total:
{"COMPOUND": "COc1cc2nccc(Oc3ccc(NC(=S)NC(=O)Cc4ccccc4)cc3F)c2cc1OC", "IC50 [µM]": 0.125}
{"COMPOUND": "COc1cc2nccc(Oc3ccc(NC(=O)OC4CCOCC4)c(C)c3C)c2cc1OC", "IC50 [µM]": 0.067}
{"COMPOUND": "COc1cc2nccc(Oc3ccc(NC(=S)NC(=O)COc4ccccc4Cl)cc3Cl)c2cc1OC", "IC50 [µM]": 0.248}
{"COMPOUND": "COc1cc2nccc(Oc3cc(C)c(NC(=O)OCCCN4CCOCC4)cc3C)c2cc1OC", "IC50 [µM]": 0.119}
{"COMPOUND": "COc1cc2ncnc(Oc3ccc(NC(=S)NCCCN4CCOCC4)cc3)c2cc1OC", "IC50 [µM]": 0.623}

a. COc1cc2ncnc(Oc3ccc(NC(=O)NC4CCN(Cc5ccccc5C)C4)c([N+](=O)[O-])c3)c2cc1OC (centres unmarked)
b. COc1cc(Oc2ncnc3cc(OC)c(OC)cc23)ccc1NC(=O)OCc1ccccc1Cl
Q: Among a and b , whose measured IC50 is the smaller figure? Write down the label attached to your selection.
Ans: b
